# STUDY_TARGET: smooth muscle angiotensin II receptor
# TEST_SUMMARY: Assay A: Angiotensin II Binding Activity (displacement of 125I-AII, rat uterine membrane preparation)
# TEST_CONTEXT: rat uterine membranes, 25 °C, 60 min; read-out: IC50 (50% displacement of total specifically bound 125I-AII)
pIC50: −log10 of the molar value.
ASSAY_ENDPOINT: pIC50

Worked examples, 5 compounds total:
* CCCCc1nc(-c2c(F)cccc2F)n(Cc2ccc(-c3ccccc3-c3nnn[nH]3)nc2)n1 [Example 32] | 7.68
* CCCCc1nc(-c2ccccc2C)nn1Cc1ccc(-c2ccccc2-c2nnn[nH]2)nc1 [Example 23] | 7.74
* CCCCc1nc(CCCC)n(Cc2ccc(-c3cccnc3-c3nnn[nH]3)cc2)n1 [Example 4] | 6.96
* CCCCc1nc(CCCC)n(Cc2ccc(-c3cnccc3-c3nnn[nH]3)cc2)n1 [Example 6] | 6.82
* CCCCc1nc(C(F)(F)CCC)nn1Cc1ccc(-c2ccccc2-c2nnn[nH]2)nc1 [Example 9] | 8.03

1 = CCCCc1nc(-c2c(F)cccc2F)nn1Cc1ccc(-c2ccccc2-c2nnn[nH]2)nc1 [Example 31]
2 = CCCCc1nc(C(=O)NC)n(Cc2ccc(-c3ccccc3-c3nnn[nH]3)nc2)n1 [Example 20]
3 = CCCCc1nc(C(=O)NC)nn1Cc1ccc(-c2ccccc2-c2nnn[nH]2)nc1 [Example 19]
List these items ordered by pIC50, big to small. Use the labels to give the requested order. 1, 3, 2

====

# STUDY_TARGET: rabbit aortic rings (Oryctolagus cuniculus)
# Construct: The thoracic aorta was removed, cleaned of adherent fat and connective tissue; from tissue; host or cells: thoracic aorta rings, endothelium removed, male New Zealand white rabbit
# Sequence (P34976 1-359): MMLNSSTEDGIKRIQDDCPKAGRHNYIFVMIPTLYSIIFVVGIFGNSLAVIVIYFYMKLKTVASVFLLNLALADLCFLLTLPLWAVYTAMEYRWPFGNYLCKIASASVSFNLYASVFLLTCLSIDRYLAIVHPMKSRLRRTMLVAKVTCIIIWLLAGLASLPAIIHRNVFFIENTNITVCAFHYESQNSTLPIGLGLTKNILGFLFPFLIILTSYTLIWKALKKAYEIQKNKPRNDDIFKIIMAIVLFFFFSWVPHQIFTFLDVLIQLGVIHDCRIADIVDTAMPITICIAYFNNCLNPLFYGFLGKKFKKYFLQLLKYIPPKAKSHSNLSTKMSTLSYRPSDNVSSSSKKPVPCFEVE
# TEST_SUMMARY: Assay B: In Vitro Vascular Smooth Muscle-Response for AII (antagonist activity in rabbit aortic rings)
# Assay type: cell-based, rabbit (male New Zealand white)
# TEST_CONTEXT: antagonist 10^-5 M for 5 min, AII challenge, second of two rabbits, read-out: pA2 (converted)
ASSAY_ENDPOINT: Kb (nM)

See these solved cases before continuing.
• CCCCc1nc(C(=O)NC)nn1Cc1ccc(-c2ccccc2-c2nnn[nH]2)nc1 = 209
• CCCCc1nc(CCCC)n(Cc2ccc(-c3cccnc3-c3nnn[nH]3)cc2)n1 = 251

a = CCCCc1nc(C(F)(F)CCC)nn1Cc1ccc(-c2ccccc2-c2nnn[nH]2)nc1
b = CCCCc1nc(-c2ccccc2C)n(Cc2ccc(-c3ccccc3-c3nnn[nH]3)nc2)n1
Between a and b , which one has the lower reported Kb value? Answer by stating the label of the chosen item. a
(a: 3.89 nM, b: 603 nM)
